Task for the reader: assign each of the following molecules its reported Ratio.
# Test system: Liver microsome
# test: Induction of mitochondrial function disruption in Wistar Han rat liver mitochondria energized with succinate assessed as adenosine diphosphate/O ratio measured at 0.067 ug/mg of protein (reference value: 2.3 +/- 0.2 no_unit)
# Format: functional
Format: numeric value only, no unit, no commentary.

Consider `C=C(C)[C@@H]1CC[C@]2(COC(=O)CC[n+]3ccc(N(C)C)cc3)CC[C@]3(C)[C@H](CC[C@@H]4[C@@]5(C)CC[C@H](OC(=O)CC[n+]6ccc(N(C)C)cc6)C(C)(C)[C@@H]5CC[C@]43C)[C@@H]12.[Cl-].[Cl-]` . Its measured Ratio is 1.8

Consider `C=C(C)[C@@H]1CC[C@]2(COC(=O)C[N+](C)(C)C(C)C)CC[C@]3(C)[C@H](CC[C@@H]4[C@@]5(C)CC[C@H](OC(=O)C[N+](C)(C)C(C)C)C(C)(C)[C@@H]5CC[C@]43C)[C@@H]12.[Cl-].[Cl-]` . Its measured Ratio is 3

Consider `C=C(C)[C@@H]1CC[C@]2(COC(=O)C[n+]3ccc(N(C)C)cc3)CC[C@]3(C)[C@H](CC[C@@H]4[C@@]5(C)CC[C@H](OC(=O)C[n+]6ccc(N(C)C)cc6)C(C)(C)[C@@H]5CC[C@]43C)[C@@H]12.[Cl-].[Cl-]` . Its measured Ratio is 2.4

Consider C=C(C)[C@@H]1CC[C@]2(COC(=O)C(CC)[n+]3ccc(N(C)C)cc3)CC[C@]3(C)[C@H](CC[C@@H]4[C@@]5(C)CC[C@H](OC(=O)C(CC)[n+]6ccc(N(C)C)cc6)C(C)(C)[C@@H]5CC[C@]43C)[C@@H]12 (some centres undefined) . Its measured Ratio is 1.6
